Listing of entries alongside the reported normalised response.
# Test system: Hs578T
# Assay details: normalised response (% of control), CellTiter-Glo; higher = more viable cells (100 = DMSO, 0 = benzethonium chloride kill control)
# Assay context: incubation time: 72 h
Report the figure in % without appending any unit label.

Answered cases to consult:
>  <Compound>
Nc1ccn([C@@H]2O[C@H](CO)[C@@H](O)[C@@H]2O)c(=O)n1 [Cytarabine] (10000 nM)

>  <Assay value>
77.9

$$$$
>  <Compound>
COc1cccc2c1C(=O)c1c(O)c3c(c(O)c1C2=O)C[C@@](O)(C(=O)CO)C[C@@H]3O[C@H]1C[C@H](N)[C@H](O)[C@H](C)O1 [Doxorubicin] (1000 nM)

>  <Assay value>
45.6

$$$$

Query (compound): C=CC[C@@H]1/C=C(\C)C[C@H](C)C[C@H](OC)[C@H]2O[C@@](O)(C(=O)C(=O)N3CCCC[C@H]3C(=O)O[C@H](/C(C)=C/[C@@H]3CC[C@@H](O)[C@H](OC)C3)[C@H](C)[C@@H](O)CC1=O)[C@H](C)C[C@@H]2OC [Tacrolimus] (10000 nM) ; field requested: normalised response
94.5

====

# Tested on: MFM-223
# Assay details: drug sensitivity score (DSS), CellTiter-Blue viability (DSS (AUC-based score)); higher = stronger viability inhibition; extreme values may be limits of the assay
# Assay context: incubation time: 72 h
drug sensitivity score for assorted compounds

Recorded results for 4 compounds are shown here.
>  <Structure>
CN1CCC(COc2cnc(-c3cccc(Cn4nc(-c5cccc(C#N)c5)ccc4=O)c3)nc2)CC1

>  <drug sensitivity score>
2.41

$$$$
>  <Structure>
COc1cc(Nc2ncc3c(n2)-c2ccc(Cl)cc2C(c2c(F)cccc2OC)=NC3)ccc1C(=O)O

>  <drug sensitivity score>
9.51

$$$$
>  <Structure>
Nc1ccn([C@@H]2O[C@H](CO)[C@@H](O)[C@@H]2O)c(=O)n1

>  <drug sensitivity score>
0

$$$$
>  <Structure>
N#CC[C@H](C1CCCC1)n1cc(-c2ncnc3[nH]ccc23)cn1

>  <drug sensitivity score>
0

$$$$

Proceeding to the next compound to report its drug sensitivity score.
Any idea what its drug sensitivity score is? The compound is C[C@]1(c2nc3c(C(N)=O)cccc3[nH]2)CCCN1
0

====

# Tested on: SK-BR-3
# Assay details: normalised response (% of control), CellTiter-Glo; higher = more viable cells (100 = DMSO, 0 = benzethonium chloride kill control)
# Assay context: incubation time: 72 h
Quantity measured: normalised response
Number first, unit second: that is the form wanted.

# count of solved cases: 3
>  <Compound>
C[C@]1(c2nc3c(C(N)=O)cccc3[nH]2)CCCN1 [Veliparib] (100 nM)

>  <normalised response>
95.2%

$$$$
>  <Compound>
Cc1c2oc3c(C)ccc(C(=O)N[C@@H]4C(=O)N[C@H](C(C)C)C(=O)N5CCC[C@H]5C(=O)N(C)CC(=O)N(C)[C@@H](C(C)C)C(=O)O[C@@H]4C)c3nc-2c(C(=O)N[C@@H]2C(=O)N[C@H](C(C)C)C(=O)N3CCC[C@H]3C(=O)N(C)CC(=O)N(C)[C@@H](C(C)C)C(=O)O[C@@H]2C)c(N)c1=O [Dactinomycin] (10 nM)

>  <normalised response>
59.2%

$$$$
>  <Compound>
N#CC[C@H](C1CCCC1)n1cc(-c2ncnc3[nH]ccc23)cn1 [Ruxolitinib] (100 nM)

>  <normalised response>
88.4%

$$$$

What does the record list as normalised response for CN1CCC(COc2cnc(-c3cccc(Cn4nc(-c5cccc(C#N)c5)ccc4=O)c3)nc2)CC1 (10 nM) ?
80.8%

====

# System: CAL-85-1
# Assay context: 72 h
Quantity measured: EC50, CellTiter-Glo
A bare number is not enough; add the unit after it.

Here is how some compounds turned out for EC50, CellTiter-Glo.
>  <Structure>
CN1CC[C@H](c2c(O)cc(O)c3c(=O)cc(-c4ccccc4Cl)oc23)[C@H](O)C1

>  <EC50, CellTiter-Glo>
372 nM

$$$$
>  <Structure>
C=CCNC1=C2C[C@@H](C)C[C@H](OC)[C@H](O)[C@@H](C)/C=C(\C)[C@H](OC(N)=O)[C@@H](OC)/C=C\C=C(/C)C(=O)NC(=CC1=O)C2=O

>  <EC50, CellTiter-Glo>
404 nM

$$$$
>  <Structure>
CN(C)C/C=C/C(=O)Nc1cc2c(Nc3ccc(F)c(Cl)c3)ncnc2cc1O[C@H]1CCOC1

>  <EC50, CellTiter-Glo>
35.2 nM

$$$$

Kindly consider the entry below.
Item COc1cccc2c1C(=O)c1c(O)c3c(c(O)c1C2=O)C[C@@](O)(C(=O)CO)C[C@@H]3O[C@H]1C[C@H](N)[C@H](O)[C@H](C)O1 has what recorded EC50, CellTiter-Glo?
547 nM

====

# key: entry, value: normalised response
# Test system: HCC1937
# Assay details: normalised response (% of control), CellTiter-Glo; higher = more viable cells (100 = DMSO, 0 = benzethonium chloride kill control)
# Assay context: incubation time: 72 h
Write down the numeric answer in % and omit the unit.

// normalised response lookup, key: COc1cccc2cc(-c3nc([C@H]4CC[C@H](C(=O)O)CC4)n4ncnc(N)c34)[nH]c12 [OSI-027] (10 nM)
94.2

====

# maps each entry to its normalised viability
# System: Hs578T
# Assay details: normalised viability (% of control), CellTiter-Blue; higher = more viable cells (100 = DMSO, 0 = benzethonium chloride kill control)
# Assay context: incubation time: 72 h
Only the number, expressed in %, is required.

Sample records with normalised viability:
>  <Compound>
Clc1ccc(C(c2ccccc2Cl)C(Cl)Cl)cc1 (stereo unspecified) [Mitotane] (1 nM)

>  <normalised viability / %>
118

$$$$
>  <Compound>
S=c1[nH]cnc2nc[nH]c12 [Mercaptopurine] (1 nM)

>  <normalised viability / %>
130

$$$$
>  <Compound>
CO[C@H]1C[C@@H]2CC[C@@H](C)[C@@](O)(O2)C(=O)C(=O)N2CCCC[C@H]2C(=O)O[C@H]([C@H](C)C[C@@H]2CC[C@@H](OC(=O)C(C)(CO)CO)[C@H](OC)C2)CC(=O)[C@H](C)/C=C(\C)[C@@H](O)[C@@H](OC)C(=O)[C@H](C)C[C@H](C)/C=C/C=C/C=C/1C [Temsirolimus] (0.1 nM)

>  <normalised viability / %>
86.6

$$$$
>  <Compound>
COc1cccc2c1C(=O)c1c(O)c3c(c(O)c1C2=O)C[C@@](O)(C(=O)CO)C[C@@H]3O[C@H]1C[C@H](N)[C@H](O)[C@H](C)O1 [Doxorubicin] (0.1 nM)

>  <normalised viability / %>
110

$$$$
>  <Compound>
Nc1ccn([C@@H]2O[C@H](CO)[C@@H](O)[C@@H]2O)c(=O)n1 [Cytarabine] (1 nM)

>  <normalised viability / %>
93.9

$$$$

Alright, here's another compound for you.
Any idea what its normalised viability is? The compound is Nc1nc(Cl)nc2c1ncn2[C@H]1C[C@H](O)[C@@H](CO)O1 [Cladribine] (0.1 nM)
108

====

# Test system: BT-549
# Assay context: 72 h
Quantity measured: EC50, CellTiter-Blue viability (µM)
I only need the number, in µM, no unit after it.

>  <Structure>
CN(C)C/C=C/C(=O)Nc1cc2c(Nc3ccc(F)c(Cl)c3)ncnc2cc1O[C@H]1CCOC1

>  <Unit of measurement>
µM

>  <EC50, CellTiter-Blue viability>
2.7

$$$$
>  <Structure>
CN1CCC(COc2cnc(-c3cccc(Cn4nc(-c5cccc(C#N)c5)ccc4=O)c3)nc2)CC1

>  <Unit of measurement>
µM

>  <EC50, CellTiter-Blue viability>
2.77

$$$$
>  <Structure>
CN1CC[C@H](c2c(O)cc(O)c3c(=O)cc(-c4ccccc4Cl)oc23)[C@H](O)C1

>  <Unit of measurement>
µM

>  <EC50, CellTiter-Blue viability>
0.298

$$$$

Could you now consider this next molecule?
Look up EC50, CellTiter-Blue viability: COc1cc(Nc2ncc3c(n2)-c2ccc(Cl)cc2C(c2c(F)cccc2OC)=NC3)ccc1C(=O)O
0.918

====

This section presents compounds with their documented normalised response values.
# Tested on: Hs578T
# Assay details: normalised response (% of control), CellTiter-Glo; higher = more viable cells (100 = DMSO, 0 = benzethonium chloride kill control)
# Assay context: incubation time: 72 h
Please respond with the number in % and leave the unit unwritten.

>  <Compound>
O=C(c1ccc(C(=O)N2CCC(N3CCCC3)CC2)c(Nc2ccccc2)c1)N1CCC(N2CCCC2)CC1 [UNC1215] (3000 nM)

>  <normalised response [%]>
95.3

$$$$

Which normalised response reading was recorded for the compound Cc1c2oc3c(C)ccc(C(=O)N[C@@H]4C(=O)N[C@H](C(C)C)C(=O)N5CCC[C@H]5C(=O)N(C)CC(=O)N(C)[C@@H](C(C)C)C(=O)O[C@@H]4C)c3nc-2c(C(=O)N[C@@H]2C(=O)N[C@H](C(C)C)C(=O)N3CCC[C@H]3C(=O)N(C)CC(=O)N(C)[C@@H](C(C)C)C(=O)O[C@@H]2C)c(N)c1=O [Dactinomycin] (1 nM) ?
105

# input compound: CN1CCC(COc2cnc(-c3cccc(Cn4nc(-c5cccc(C#N)c5)ccc4=O)c3)nc2)CC1 (0.1 nM) ; wanted: its normalised response
96.4

Recorded normalised response of COc1cccc2c1C(=O)c1c(O)c3c(c(O)c1C2=O)C[C@@](O)(C(=O)CO)C[C@@H]3O[C@H]1C[C@H](N)[C@H](O)[C@H](C)O1 [Doxorubicin] (1 nM) , please.
100
